Tested on: Panel NCI-60 (60 carcinoma cell lines)
test-description: In vitro cytotoxic potency against NCI-60 human tumor cell line
Assay type: functional
measured-parameter: GI50 (µM)
Your answer should be a plain number; it is taken to be in µM.

Below are worked cases with known answers.
{"molecule": "COc1cc(-c2cc(=O)c3c(OC)c(OC)c(OC)c(OC)c3o2)cc(OC)c1OC [HEPATAMETHOXYFLAVONE]", "GI50 [µM]": 32}
{"molecule": "COc1ccc(-c2cc(=O)c3c(OC)c(OC)c(OC)c(OC)c3o2)cc1 [TANGERETIN]", "GI50 [µM]": 54}
{"molecule": "COc1ccc(-c2oc3cc(OC)c(OC)c(O)c3c(=O)c2O)cc1O", "GI50 [µM]": 4}

[ask] Using the record for COc1ccc(-c2cc(=O)c3c(O)c(OC)c(O)c(OC)c3o2)cc1 [NEVADENSIN] , state its measured GI50.
[reply] 59

[ask] Using the record for COc1ccc2c(=O)cc(-c3ccc(OC)c(OC)c3OC)oc2c1 , state its measured GI50.
[reply] 78

[ask] Using the record for COc1cc(-c2oc3c(OC)c(OC)cc(O)c3c(=O)c2OC)ccc1O [TERNATIN] , state its measured GI50.
[reply] 9.5

[ask] Using the record for COc1cc(O)c2c(=O)c(O)c(-c3ccc(O)c(O)c3)oc2c1 [RHAMNETIN] , state its measured GI50.
[reply] 8.9

[ask] Using the record for COc1ccc(-c2cc(=O)c3cc(O)ccc3o2)c(OC)c1OC , state its measured GI50.
[reply] 30

[ask] Using the record for COc1ccc(-c2oc3cc(OC)ccc3c(=O)c2O)cc1 , state its measured GI50.
[reply] 4.2

[ask] Using the record for COc1ccc(-c2cc(=O)c3c(O)cc(O)cc3o2)cc1OC , state its measured GI50.
[reply] 48

[ask] Using the record for COc1ccc(-c2cc(=O)c3c(O)c(OC)c(OC)c(OC)c3o2)cc1OC [5-DEMETHYLNOBILETIN] , state its measured GI50.
[reply] 17

[ask] Using the record for COc1cc(-c2oc3c(OC)c(O)c(OC)c(O)c3c(=O)c2OC)cc(OC)c1OC , state its measured GI50.
[reply] 54

[ask] Using the record for COc1ccc(-c2cc(=O)c3c(O)cccc3o2)c(OC)c1OC , state its measured GI50.
[reply] 45

[ask] Using the record for COc1cc(-c2cc(=O)c3ccccc3o2)cc(OC)c1OC , state its measured GI50.
[reply] 18

[ask] Using the record for COc1cc2oc(-c3ccc(O)cc3)cc(=O)c2c(OC)c1O , state its measured GI50.
[reply] 62

[ask] Using the record for COc1cc(-c2oc3c(OC)c(O)c(OC)c(O)c3c(=O)c2OC)ccc1O , state its measured GI50.
[reply] 27

[ask] Using the record for COc1ccc(-c2oc3cc(O)cc(O)c3c(=O)c2OC)cc1O , state its measured GI50.
[reply] 1.7

[ask] Using the record for COc1ccc(-c2oc3cc(O)c(C)c(C)c3c(=O)c2OC)cc1O , state its measured GI50.
[reply] 12

[ask] Using the record for COc1ccc(-c2oc3cc(O)cc(O)c3c(=O)c2OC)cc1OCc1ccccc1 , state its measured GI50.
[reply] 8.3

[ask] Using the record for COc1c(OC)c(OC)c(-c2cc(=O)c3c(OC)c(OC)c(OC)c(OC)c3o2)c(OC)c1OC , state its measured GI50.
[reply] 36

[ask] Using the record for COc1c(OC)c(OC)c2c(=O)cc(-c3ccc(OC(C)C)cc3)oc2c1OC , state its measured GI50.
[reply] 11

[ask] Using the record for O=c1c(O)c(-c2cc(O)c(O)c(O)c2)oc2cc(O)cc(O)c12 [MYRICETIN] , state its measured GI50.
[reply] 36

The reported numbers originate from ChEMBL document CHEMBL1130998.
